Tested on: A. baumannii PBP3 S395F
TEST_DETAILS: Acylation rate constant (kinact/Ki), fluorescence anisotropy competition with BOCILLIN
EXPERIMENTAL_SETUP: variant data from McLeod et al. (2018)
Task for the reader: assign each of the following compounds its reported % WT.
Respond with a number, then the unit of measure.

Study these solved cases before continuing.
> print(dat)
                               smiles.entry          subject.of.test  parameter.measured  experimental.value
1  C[C@H]1[C@H](NC(=O)/C(=N\OC(C)(C)C(=O)O)c2csc(N)n2)C(=O)N1S(=O)(=O)O  A. baumannii PBP3 S395F                % WT               15.7%
2  C[C@@H](O)[C@H]1C(=O)N2C(C(=O)O)=C(S[C@@H]3CN[C@H](C(=O)N(C)C)C3)[C@H](C)[C@H]12  A. baumannii PBP3 S395F                % WT                 30%
3  C[C@@H](O)[C@H]1C(=O)N2C(C(=O)O)=C(SCCN=CN)C[C@H]12  A. baumannii PBP3 S395F                % WT                2.0%

Query compound follows.
In: Fill in the blank: the reported % WT of CC1(C)[C@H](C(=O)O)N2C(=O)C[C@H]2S1(=O)=O is ____.
Out: 4.2%

###

Tested on: isogenic A. baylyi ADP1 panel encoding wildtype or mutant PBP3
TEST_DETAILS: Broth microdilution MIC, isogenic A. baylyi panel (PBP3 variants with or without overexpressed β-lactamases)
Assay type: cell-based
EXPERIMENTAL_SETUP: Acinetobacter baylyi, A. baylyi; PBP3 H370Y; overexpressed ADC-30
Would you mind telling me the reported MIC of each entry?
One number for each entry, in mg/L.

> print(dat)
                               smiles.entry  parameter.measured  unit.spec  experimental.value
1  C[C@H]1[C@H](NC(=O)/C(=N\OC(C)(C)C(=O)O)c2csc(N)n2)C(=O)N1S(=O)(=O)O                 MIC       mg/L                  32
2  CC1(C)[C@H](C(=O)O)N2C(=O)C[C@H]2S1(=O)=O                 MIC       mg/L                   2
3  C[C@@H](O)[C@H]1C(=O)N2C(C(=O)O)=C(S[C@@H]3CN[C@H](C(=O)N(C)C)C3)[C@H](C)[C@H]12                 MIC       mg/L                0.06

// below: MIC requested for another molecule
In: Returns the measured MIC for the input molecule. Input: C[C@@H](O)[C@H]1C(=O)N2C(C(=O)O)=C(SCCN=CN)C[C@H]12
Out: 0.03

###

System: A. baumannii clinical isolates
TEST_DETAILS: microbe, parasite or virus in culture
Type: cell-based
EXPERIMENTAL_SETUP: Acinetobacter baumannii, isolate ARC7094 (IHMA 2296423), Turkey, RTI, 2020, read-out: MIC
Please respond with reported MIC for every item in the list.

Use these answered entries as a reference point.
> print(dat)
                               smiles.entry  experimental.value
1  CN(C)c1cc(NC(=O)CNC(C)(C)C)c(O)c2c1C[C@H]1C[C@H]3[C@H](N(C)C)C(O)=C(C(N)=O)C(=O)[C@@]3(O)C(O)=C1C2=O             1 µg/mL
2  C[C@@H](O)[C@H]1C(=O)N2C(C(=O)O)=C(SCCN=CN)C[C@H]12            64 µg/mL
3  C[C@@H](O)[C@H]1C(=O)N2C(C(=O)O)=C(S[C@@H]3CN[C@H](C(=O)N(C)C)C3)[C@H](C)[C@H]12            64 µg/mL

Continue with the compound presented below.
In: What does the record list as MIC for CC1(C)[C@H](C(=O)O)N2C(=O)C[C@H]2S1(=O)=O ?
Out: > 64 µg/mL
